inhibition overview
system-tested: Gastrin/cholecystokinin type B receptor (Mus musculus)
Sequence (whole entry): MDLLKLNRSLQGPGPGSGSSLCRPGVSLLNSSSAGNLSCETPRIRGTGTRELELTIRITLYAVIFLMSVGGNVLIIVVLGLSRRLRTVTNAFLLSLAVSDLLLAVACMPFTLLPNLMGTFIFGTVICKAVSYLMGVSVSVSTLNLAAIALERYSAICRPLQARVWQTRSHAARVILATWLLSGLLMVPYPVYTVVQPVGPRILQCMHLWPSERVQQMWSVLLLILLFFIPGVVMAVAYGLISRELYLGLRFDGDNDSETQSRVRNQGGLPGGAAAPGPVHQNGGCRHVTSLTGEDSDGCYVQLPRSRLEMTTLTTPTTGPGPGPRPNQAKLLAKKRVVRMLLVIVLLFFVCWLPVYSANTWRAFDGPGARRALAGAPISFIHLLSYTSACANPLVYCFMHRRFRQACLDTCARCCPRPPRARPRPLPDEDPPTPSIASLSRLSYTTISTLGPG
assay-notes: Inhibition of [125I]-labeled CCK-8 sulfate binding to cholecystokinin type B receptor in mouse brain membranes
Type: cell membranes
test-conditions: Membrane, concentration not given here

| smiles | output-unit | inhibition |
| --- | --- | --- |
| O=c1c2ccccc2nc(CCc2c[nH]c3ccccc23)n1-c1ccccc1Cl | % | 44 |
| O=c1c2ccccc2nc(CCc2c[nH]c3ccccc23)n1-c1ccccc1F | % | 75 |
| COc1ccccc1-n1c(CCc2c[nH]c3ccccc23)nc2ccccc2c1=O | % | 74 |
| O=c1c2ccccc2nc(CCc2c[nH]c3ccccc23)n1-c1ccccc1C(F)(F)F | % | 35 |

====

system-tested: UniProt P30551
Sequence (P30551 whole entry): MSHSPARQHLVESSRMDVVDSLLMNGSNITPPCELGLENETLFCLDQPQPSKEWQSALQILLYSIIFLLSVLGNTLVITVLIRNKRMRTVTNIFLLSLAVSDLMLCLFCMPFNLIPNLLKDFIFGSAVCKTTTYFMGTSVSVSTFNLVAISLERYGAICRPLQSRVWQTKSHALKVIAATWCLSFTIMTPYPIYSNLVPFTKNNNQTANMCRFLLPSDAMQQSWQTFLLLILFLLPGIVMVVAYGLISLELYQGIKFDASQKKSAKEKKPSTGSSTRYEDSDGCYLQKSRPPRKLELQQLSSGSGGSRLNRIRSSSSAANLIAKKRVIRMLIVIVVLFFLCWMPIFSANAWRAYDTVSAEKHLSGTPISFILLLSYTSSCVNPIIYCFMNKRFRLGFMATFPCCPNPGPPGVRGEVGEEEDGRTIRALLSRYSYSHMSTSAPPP
assay-notes: Inhibition of [3H]-labeled L-364,718 binding to Cholecystokinin type A receptor in rat pancreas
test-conditions: concentration not given here
value-type: inhibition (%)

| smiles | endpoint-value |
| --- | --- |
| CC(C)Oc1cccc(-n2c(CCc3c[nH]c4ccc(Br)cc34)nc3ccccc3c2=O)c1 | -6 |
| COc1cccc(-n2c(CCc3c[nH]c4ccc(Br)cc34)nc3ccccc3c2=O)c1 | 5 |
| O=c1c2ccccc2nc(CCc2c[nH]c3ccccc23)n1-c1cccc(C(F)(F)F)c1 | 6 |
| CCc1cccc(-n2c(CCc3c[nH]c4ccc(Br)cc34)nc3ccccc3c2=O)c1 | -5 |

====

system-tested: Gastrin/cholecystokinin type B receptor (Mus musculus, UniProt P56481)
Sequence (P56481 whole entry): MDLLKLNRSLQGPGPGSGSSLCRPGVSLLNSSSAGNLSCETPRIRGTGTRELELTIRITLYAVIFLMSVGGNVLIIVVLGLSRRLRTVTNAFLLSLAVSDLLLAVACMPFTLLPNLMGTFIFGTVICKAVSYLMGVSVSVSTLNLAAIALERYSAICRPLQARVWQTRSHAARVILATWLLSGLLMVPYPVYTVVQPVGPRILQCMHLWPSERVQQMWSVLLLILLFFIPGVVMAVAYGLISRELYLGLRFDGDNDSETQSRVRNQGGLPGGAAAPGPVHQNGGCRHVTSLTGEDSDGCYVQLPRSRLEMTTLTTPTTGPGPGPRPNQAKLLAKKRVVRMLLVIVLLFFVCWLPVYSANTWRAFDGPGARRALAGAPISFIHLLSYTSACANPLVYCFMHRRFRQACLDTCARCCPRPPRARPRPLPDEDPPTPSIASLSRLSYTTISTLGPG
assay-notes: Inhibition of [125I]CCK-8 sulfate binding to cholecystokinin type B receptor in mouse brain membranes.
Format: cell membranes
pIC50: −log10 of the molar value.

| smiles | pIC50 |
| --- | --- |
| CCCOc1cccc(-n2c(CCc3c[nH]c4ccc(Br)cc34)nc3ccccc3c2=O)c1 | 7.24 |
| O=c1c2ccccc2nc(CCc2c[nH]c3ccccc23)n1-c1cccc(C(F)(F)F)c1 | 6.32 |
| O=c1c2ccccc2nc(CCc2c[nH]c3ccc(Br)cc23)n1-c1cccc(OC2CCCC2)c1 | 7.17 |
